Task for the reader: assign each of the following molecules its reported TGI.
test system: UACC-62 melanoma; assay: NCI tumour cell line growth inhibition, 48 h

Request - read-out TGI | tested on UACC-62 melanoma | molecule CC1CC(C)C(C(O)CC2CC(=O)N(c3ccccc3)C(=O)C2)C(O)C1 (stereo unspecified)
> 100 µM

Request - read-out TGI | tested on UACC-62 melanoma | molecule CCOC(=O)c1cc2c3c(cc(OC)c2[nH]1)N(C(=O)OCC)CC3
> 100 µM

Request - read-out TGI | tested on UACC-62 melanoma | molecule Cn1c(=O)c2c(nc(N/N=C3/SCC(=O)N3Cc3ccccc3)n2C)n(C)c1=O
> 100 µM

Request - read-out TGI | tested on UACC-62 melanoma | molecule NC(N)=NCCCC(NC(=O)c1c2ccccc2nc2ccccc12)C(=O)O (stereo unspecified)
> 100 µM

Request - read-out TGI | tested on UACC-62 melanoma | molecule NC(N)=N/N=C/c1c(-c2ccc(Cl)c([N+](=O)[O-])c2)nc2sc3ccccc3n12
1.58 µM

Request - read-out TGI | tested on UACC-62 melanoma | molecule COc1ccc(C(=O)O/N=C2/CCCCC2CN(C)C)cc1 (stereo unspecified)
> 100 µM

* * *

Task for the reader: assign each of the following molecules its reported TGI.
tested on: OVCAR-5 ovarian; assay: NCI tumour cell line growth inhibition, 48 h
Where a SMILES comes first, the peptide text is derived from it. The star is where a group is joined. Cbz = O=C(OCc1ccccc1)*; Boc = CC(C)(C)OC(=O)*; OSu = O=C1CCC(=O)N1O*; Bn = c1ccc(C*)cc1

Field request: TGI | item: CN(/N=C\c1ccc2ccccc2c1)C1=NCCCN1
> 100 µM

Field request: TGI | item: CC(C)(C)OC(=O)NC(Cc1ccc(OCc2ccccc2)cc1)C(=O)NC(CCCCNC(=O)OCc1ccccc1)C(=O)NC(CCCCNC(=O)OCc1ccccc1)C(=O)ON1C(=O)CCC1=O (stereo not given) (Boc-Tyr(Bn)-Lys(Cbz)-Lys(Cbz)-OSu; configuration not given here)
> 100 µM

Field request: TGI | item: COC(=O)c1ccc2[nH]c(O)c(C(=Nc3ccc(N(C)C(=O)CN4CCN(C)CC4)cc3)c3ccccc3)c2c1
6.8 µM

Field request: TGI | item: COc1cc(CCc2ccc(OC(C)=O)cc2)cc(OC)c1OC
> 100 µM

Field request: TGI | item: COc1cc2c(cc1OCCCOc1ccc(-c3cc4ccccc4c4ccccc34)cc1)N=C[C@@H]1CCCN1C2=O
0.995 µM

Field request: TGI | item: COc1ccc2c(c1)CC[C@@H]1C2CC[C@]2(C)C(=C=CP(=O)(O)O)CCC12 (stereo not given in full)
> 100 µM

Field request: TGI | item: O=C(NCc1ccccc1Cl)c1c(O)c2ccccc2[nH]c1=O
> 100 µM

Field request: TGI | item: CCCCCCCCCCCCC1N=C(N)N2CCCC2=C1C(=O)OC (stereo not given)
13 µM

Field request: TGI | item: CC(CC=O)Nc1nn2c(=O)c3ccccc3nc2s1 (stereo not given)
> 100 µM

Field request: TGI | item: c1ccc2c3c([nH]c2c1)C1C2CCCCN2C(c2ccncc2)N1CC3 (stereo not given)
> 100 µM

Field request: TGI | item: NC(=O)c1ncn(C2OC(CO)C(O)C2O)c1N (stereo not given)
> 100 µM

Field request: TGI | item: O=c1[nH]c2ccc([N+](=O)[O-])cc2nc1/C(=N/Nc1ccccc1)C(O)c1ccco1 (stereo not given)
> 100 µM

Field request: TGI | item: COC1OC(C(=O)O)C2OC(C)(C)OC12 (stereo not given)
> 100 µM

Field request: TGI | item: COC(=O)[C@@H]1COC(=O)N1
> 100 µM

Field request: TGI | item: COc1ccc(Cc2nc3cc(OC)c(OC)cc3c(=O)[nH]2)cc1
> 74.1 µM

Field request: TGI | item: Cc1nc(-n2nc(-c3ccccc3)cc2-c2ccccc2)sc1C(=O)/C=C/c1ccccc1
> 100 µM

Field request: TGI | item: N#CC(NC(=O)CCl)=C(Cl)Cl
3.47 µM

Field request: TGI | item: CC1(Cl)CC(C)(/C=C/Cl)C(Cl)CC1Cl (stereo not given)
34.2 µM

Field request: TGI | item: O=C1C2CC[C@@H]3C(=O)C(Cl)(Cl)[C@@H]3CCC2C1(Cl)Cl (stereo not given in full)
> 100 µM

Field request: TGI | item: CC(C)[C@@H]1NC(=O)[C@@H]2N=C(O[C@H]2C)[C@H](C(C)C)NC(=O)C2N=C1O[C@H]2C
> 100 µM

Where do these numbers come from? They come from PubChem BioAssay (NCI).
